assay type: physicochemical; conditions: 10 days under long-term and accelerated conditions
RESULT_TYPE: chemical stability (assessment in words)

COc1ccc2[nH]c3c(c2c1)CCN[C@]31CS[C@@H]2c3c(OC(C)=O)c(C)c4c(c3[C@H](COC1=O)N1[C@@H]2[C@H]2c3c(cc(C)c(OC)c3O)C[C@@H]([C@@H]1O)N2C)OCO4 [crystal form III, lurbinectedin] ... excellent
COc1ccc2[nH]c3c(c2c1)CCN[C@]31CS[C@@H]2c3c(OC(C)=O)c(C)c4c(c3[C@H](COC1=O)N1[C@@H]2[C@H]2c3c(cc(C)c(OC)c3O)C[C@@H]([C@@H]1O)N2C)OCO4 [crystal form IV, lurbinectedin] ... excellent
COc1ccc2[nH]c3c(c2c1)CCN[C@]31CS[C@@H]2c3c(OC(C)=O)c(C)c4c(c3[C@H](COC1=O)N1[C@@H]2[C@H]2c3c(cc(C)c(OC)c3O)C[C@@H]([C@@H]1O)N2C)OCO4 [crystal form II, lurbinectedin] ... excellent

---

format: physicochemical; conditions: Group 1, 0 day
RESULT_TYPE: HPLC purity (%)
Give bare numbers, in %.

Use these answered entries as a reference point.
COc1ccc2[nH]c3c(c2c1)CCN[C@]31CS[C@@H]2c3c(OC(C)=O)c(C)c4c(c3[C@H](COC1=O)N1[C@@H]2[C@H]2c3c(cc(C)c(OC)c3O)C[C@@H]([C@@H]1O)N2C)OCO4 [crystal form III, lurbinectedin] ... 99.61
COc1ccc2[nH]c3c(c2c1)CCN[C@]31CS[C@@H]2c3c(OC(C)=O)c(C)c4c(c3[C@H](COC1=O)N1[C@@H]2[C@H]2c3c(cc(C)c(OC)c3O)C[C@@H]([C@@H]1O)N2C)OCO4 [crystal form B, lurbinectedin, reference compound] ... 99.62
COc1ccc2[nH]c3c(c2c1)CCN[C@]31CS[C@@H]2c3c(OC(C)=O)c(C)c4c(c3[C@H](COC1=O)N1[C@@H]2[C@H]2c3c(cc(C)c(OC)c3O)C[C@@H]([C@@H]1O)N2C)OCO4 [crystal form II, lurbinectedin] ... 99.59

Can you share its HPLC purity? I mean this compound: COc1ccc2[nH]c3c(c2c1)CCN[C@]31CS[C@@H]2c3c(OC(C)=O)c(C)c4c(c3[C@H](COC1=O)N1[C@@H]2[C@H]2c3c(cc(C)c(OC)c3O)C[C@@H]([C@@H]1O)N2C)OCO4 [crystal form IV, lurbinectedin] 99.90

---

assay type: physicochemical; conditions: 10 days under long-term and accelerated conditions
RESULT_TYPE: physical stability (assessment in words)

COc1ccc2[nH]c3c(c2c1)CCN[C@]31CS[C@@H]2c3c(OC(C)=O)c(C)c4c(c3[C@H](COC1=O)N1[C@@H]2[C@H]2c3c(cc(C)c(OC)c3O)C[C@@H]([C@@H]1O)N2C)OCO4 [crystal form II, lurbinectedin] ... excellent
COc1ccc2[nH]c3c(c2c1)CCN[C@]31CS[C@@H]2c3c(OC(C)=O)c(C)c4c(c3[C@H](COC1=O)N1[C@@H]2[C@H]2c3c(cc(C)c(OC)c3O)C[C@@H]([C@@H]1O)N2C)OCO4 [crystal form B, lurbinectedin, reference compound] ... excellent
COc1ccc2[nH]c3c(c2c1)CCN[C@]31CS[C@@H]2c3c(OC(C)=O)c(C)c4c(c3[C@H](COC1=O)N1[C@@H]2[C@H]2c3c(cc(C)c(OC)c3O)C[C@@H]([C@@H]1O)N2C)OCO4 [crystal form III, lurbinectedin] ... excellent
COc1ccc2[nH]c3c(c2c1)CCN[C@]31CS[C@@H]2c3c(OC(C)=O)c(C)c4c(c3[C@H](COC1=O)N1[C@@H]2[C@H]2c3c(cc(C)c(OC)c3O)C[C@@H]([C@@H]1O)N2C)OCO4 [crystal form IV, lurbinectedin] ... excellent
